test_readout: melting point

Exercise: Determine its reported melting point: COc1nnc(C)c(-c2cccs2)c1-c1c(F)cc(F)cc1F [I.h.199]
Solution: 124 to 125 °C

Exercise: Determine its reported melting point: Cc1n[nH]c(=O)c(-c2c(F)cc(F)cc2F)c1-c1cccs1 [I.h.196]
Solution: 249 to 251 °C

Exercise: Determine its reported melting point: Cc1nnc(Cl)c(-c2c(F)cc(F)cc2F)c1-c1cccs1 [I.h.198]
Solution: 90 to 92 °C

Exercise: Determine its reported melting point: COc1cc(F)c(-c2c(OC)nnc(C)c2-c2cccs2)c(F)c1 [I.h.254]
Solution: 130 to 133 °C

Exercise: Determine its reported melting point: Cc1nnc(C)c(-c2c(F)cc(F)cc2F)c1-c1cccs1 [I.h.200]
Solution: 100 to 102 °C

Exercise: Determine its reported melting point: Cc1nnc(F)c(-c2c(F)cc(F)cc2F)c1-c1cccs1 [I.h.197]
Solution: 71 to 74 °C
